Taken from ChEMBL document CHEMBL3885861.

Species: Rattus norvegicus
assay_notes: Open TG-GATES - Regimen: Daily Repeat
Type: toxicity, organism-based, Sprague-Dawley
Design: regimen Daily Repeat, gender Male, age 6 weeks
particulars: in vivo, po, 0 mg/kg, 72 h, tissue Plasma, route gavage, dose level Control, time 3 day
Binary classification by A/G, with 0.9 as an inclusive lower bound for rule met; all other cases are rule not met.

>  <compound>
CCSCC[C@H](N)C(=O)O

>  <label>
rule met

$$$$

Does the reported A/G for CC(=N)S [THIOACETAMIDE] fall at or above the 0.9 mark?
rule met

Try CC(=O)Oc1cc(C(C)C)c(OCCN(C)C)cc1C next.
rule met

Try C[C@](N)(Cc1ccc(O)c(O)c1)C(=O)O next.
rule not met

Try CC(C)C(=O)Nc1ccc([N+](=O)[O-])c(C(F)(F)F)c1 [FLUTAMIDE] next.
rule met

Try CCc1oc2ccccc2c1C(=O)c1cc(I)c(O)c(I)c1 next.
rule met

Try CN1C(=O)OC(C)(C)C1=O next.
rule not met
